- System: T1, 4H497-AA
- T1 chain: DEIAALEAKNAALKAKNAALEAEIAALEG
- Assay notes: two-hybrid library CCmax;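 also: natural log of median RNA to DNA barcode read ratio; higher means stronger binding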
- Reported conditions: mean of both orientations
Each entry below lists one item and its recorded interaction score value.
Lab note: jot down the number only; don't add units.

[
  {
    "Binder": "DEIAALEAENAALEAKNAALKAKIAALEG [4H189-AA]",
    "interaction score": 0.26
  },
  {
    "Binder": "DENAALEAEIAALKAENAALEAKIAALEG [4H1109-AA]",
    "interaction score": -1.77
  },
  {
    "Binder": "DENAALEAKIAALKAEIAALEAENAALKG [4H1348-AA]",
    "interaction score": -2.02
  },
  {
    "Binder": "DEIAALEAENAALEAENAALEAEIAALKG [4H146-AA]",
    "interaction score": 0.786
  },
  {
    "Binder": "DEIAALEAKNAALEAEIAALEAKNAALEG [4H391-AA]",
    "interaction score": -2
  },
  {
    "Binder": "DKNAALKAEIAALKAKNAALKAKIAALEG [4H3709-AA]",
    "interaction score": -1.73
  }
]

Q: Supply reported interaction score belonging to this binder: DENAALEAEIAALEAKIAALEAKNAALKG [4H1064-AA]
A: -1.3

Q: Supply reported interaction score belonging to this binder: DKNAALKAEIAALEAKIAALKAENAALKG [4H3628-AA]
A: -1.67

Q: Supply reported interaction score belonging to this binder: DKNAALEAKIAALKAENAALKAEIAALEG [4H3417-AA]
A: -1.9

Q: Supply reported interaction score belonging to this binder: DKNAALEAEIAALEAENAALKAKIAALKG [4H3102-AA]
A: -1.18

Q: Supply reported interaction score belonging to this binder: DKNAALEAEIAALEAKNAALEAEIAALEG [4H3121-AA]
A: -1.74

Q: Supply reported interaction score belonging to this binder: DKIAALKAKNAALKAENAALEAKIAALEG [4H3029-AA]
A: -0.722

Q: Supply reported interaction score belonging to this binder: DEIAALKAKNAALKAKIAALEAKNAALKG [4H1000-AA]
A: -1.74

Q: Supply reported interaction score belonging to this binder: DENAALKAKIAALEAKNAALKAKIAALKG [4H1854-AA]
A: -1.88

The measured values listed here are drawn from paper PMC10397247.
